Reference source: ChEMBL document CHEMBL4373746

Each entry below carries its recorded fraction unbound at 6 h, 2 µM.
test: Fraction unbound in Wistar Han rat brain at 2 uM incubated for 6 hrs by equilibrium dialysis method
Form: value (number only, do not type unit).

>  <compound>
CC(C)C[C@H](Nc1ccc(C(=O)NCCC(=O)O)cn1)c1ccc(-c2ccc(C(F)(F)F)cn2)cc1

>  <fraction unbound at 6 h, 2 µM>
0.00795

$$$$
>  <compound>
CC(C)(CC1Cc2ccccc2C1)NC[C@@H](O)COc1cc(C2CC3CC2C2C(C(=O)O)C32)ccc1C#N (some centres undefined)

>  <fraction unbound at 6 h, 2 µM>
0.00176

$$$$
>  <compound>
C[C@H](c1nc2cnc(N3CCC[C@@H](C(=O)N4CCCC4)C3)nc2[nH]1)n1cc(Cl)cn1

>  <fraction unbound at 6 h, 2 µM>
0.155

$$$$

Next up:
The compound listed as O=C(O)[C@@H]1CCCN(C(=O)n2cnc(-c3ccc(-c4cnc(N5CCOCC5)nc4)cc3)n2)[C@H]1c1ccccc1 has a reported fraction unbound at 6 h, 2 µM of 0.00251
